# Tested on: scn1Lab mutants
# test.method.notes: Locomotion tracking assay of seizure behavior (96-well format)
# condition.context: 250 μM; 6 fish per drug; positive hit = reduction in mean swim velocity ≥38%

{"columns": ["item.smiles", "system", "5HT library first-pass locomotion screen"],
 "data": [
  ["CN1CCC(c2c[nH]c3ccc(O)cc23)CC1", "scn1Lab mutants", "positive hits"],
  ["CNCC[C@@H](Oc1ccccc1C)c1ccccc1", "scn1Lab mutants", "positive hits"],
  ["O=C1Cc2cc(CCN3CCN(c4nsc5ccccc45)CC3)c(Cl)cc2N1", "scn1Lab mutants", "positive hits"]
]}

----------
# Test system: scn1Lab mutants
# test.method.notes: Locomotion tracking assay of seizure behavior (96-well format)
# condition.context: 1 mM; 5 dpf; 6-12 fish
endpoint.label: effect on locomotor seizure behavior

{"columns": ["item.smiles", "endpoint.label", "assay.result"],
 "data": [
  ["Nc1nnc(-c2cccc(Cl)c2Cl)c(N)n1", "effect on locomotor seizure behavior", "had no effect"],
  ["CC[C@@H](C(N)=O)N1CCCC1=O", "effect on locomotor seizure behavior", "had no effect"]
]}
